Catalogue of pKi values
target: Adenosine receptor A1 (Bos taurus)
Sequence (P28190 whole entry): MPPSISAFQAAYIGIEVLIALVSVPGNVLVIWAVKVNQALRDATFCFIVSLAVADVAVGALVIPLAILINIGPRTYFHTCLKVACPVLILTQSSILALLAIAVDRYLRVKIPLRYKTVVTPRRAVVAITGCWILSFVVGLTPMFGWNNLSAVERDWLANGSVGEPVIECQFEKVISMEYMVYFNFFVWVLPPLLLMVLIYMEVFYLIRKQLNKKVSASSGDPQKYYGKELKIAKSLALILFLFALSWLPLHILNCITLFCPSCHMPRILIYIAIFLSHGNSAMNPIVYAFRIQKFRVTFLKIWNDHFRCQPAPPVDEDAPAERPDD
pKi: −log10 of the molar value.
value.kind: pKi

molecule	assay.system	value.prefix	endpoint.result
O=C(NCc1ccccc1)c1cnc2nc(Br)ccc2c1O	Adenosine receptor A1 (Bos taurus)	=	5.27
Cc1ccc2c(O)c(C(=O)NCc3ccc(N)cc3)cnc2n1	Adenosine receptor A1 (Bos taurus)	=	5.54
Cc1ccc2c(O)c(C(=O)NN3CCN(C)CC3)cnc2n1	Adenosine receptor A1 (Bos taurus)	<	5.00
Cc1ccc2c(O)c(C(=O)NCc3ccc(NC(=O)c4ccccc4)cc3)cnc2n1	Adenosine receptor A1 (Bos taurus)	=	5.12
Cc1ccc2c(NC3CCCCC3)c(Cc3ccccc3)cnc2n1	Adenosine receptor A1 (Bos taurus)	<	5.00
O=C(NCc1ccccc1)c1cnc2[nH]c(=O)ccc2c1O	Adenosine receptor A1 (Bos taurus)	<	5.00
CN(C)c1ccc2c(O)c(C(=O)NCc3ccccc3)cnc2n1	Adenosine receptor A1 (Bos taurus)	=	6.91
CCOC(=O)c1cnc2nc(C)ccc2c1O	Adenosine receptor A1 (Bos taurus)	<	5.00
Cc1ccc2c(O)c(C(=O)NCc3ccc(Cl)cc3)cnc2n1	Adenosine receptor A1 (Bos taurus)	=	5.76
Cc1ccc2c(O)c(C(=O)NC3CCC(C)CC3)cnc2n1 (stereo not given)	Adenosine receptor A1 (Bos taurus)	=	5.22
COc1ccc(CNC(=O)c2cnc3nc(C)ccc3c2O)cc1	Adenosine receptor A1 (Bos taurus)	<	5.00
Cc1ccc2c(O)c(C(=O)NCc3ccc([N+](=O)[O-])cc3)cnc2n1	Adenosine receptor A1 (Bos taurus)	=	5.79
Cc1ccc2c(O)c(CC(=O)NC3CCCCC3)cnc2n1	Adenosine receptor A1 (Bos taurus)	<	5.00
O=C(NCc1ccccc1)c1cnc2nc(NCCc3ccccc3)ccc2c1O	Adenosine receptor A1 (Bos taurus)	=	6.01
CC(=O)Nc1ccc2c(O)c(C(=O)NCc3ccccc3)cnc2n1	Adenosine receptor A1 (Bos taurus)	<	5.00
O=C(NCc1ccccc1)c1cnc2nc(NCc3ccccc3)ccc2c1O	Adenosine receptor A1 (Bos taurus)	=	6.17
Cc1ccc2c(O)c(C(=O)NC(C)c3ccccc3)cnc2n1 (stereo not given)	Adenosine receptor A1 (Bos taurus)	=	6.38
Cc1ccc2c(O)c(Cc3ccccc3Cl)cnc2n1	Adenosine receptor A1 (Bos taurus)	=	5.06
O=C(NCc1ccccc1)c1cnc2nc(Cl)ccc2c1O	Adenosine receptor A1 (Bos taurus)	=	6.23
Cc1ccc2c(NN)c(Cc3ccccc3)cnc2n1	Adenosine receptor A1 (Bos taurus)	=	6.66

###

molecular target: Adenosine receptor A2a (Bos taurus); experiment: Inhibition of [3H]CGS-21680 binding to adenosine A2a receptor of bovine striatal membrane
Criterion: Ki strictly under 700 nM. Met: label 1. Not met: label 0.

molecule	assigned.category
Nc1ccc2c(O)c(C(=O)NCc3ccc(Cl)cc3)cnc2n1	label 1
Cc1ccc2c(O)c(C(=O)OCc3ccccc3)cnc2n1	label 0
Cc1ccc2c(O)c(C(=O)NN3CCOCC3)cnc2n1	label 0
CN(C)c1ccc2c(O)c(C(=O)NCc3ccccc3)cnc2n1	label 1
Cc1ccc2c(O)c(C(=O)NCc3ccc(NC(=O)c4ccccc4)cc3)cnc2n1	label 1
CC(=O)Nc1ccc2c(O)c(C(=O)NCc3ccccc3)cnc2n1	label 0
Cc1ccc2c(O)c(C(=O)NCCC(C)C)cnc2n1	label 0
O=C(NCc1ccccc1)c1cnc2nc(NCc3ccccc3)ccc2c1O	label 0
Cc1ccc2c(O)c(C(=O)NCCc3ccccc3)cnc2n1	label 1
Cc1ccc2c(O)c(C(=O)NCc3ccc(N)cc3)cnc2n1	label 1
Cc1ccc2c(O)c(C(=O)NCc3ccc([N+](=O)[O-])cc3)cnc2n1	label 1
O=C(NCc1ccccc1)c1cnc2nc(N(CCO)CCO)ccc2c1O	label 0
Cc1ccc2c(O)c(C(=O)NC3CCC(C)CC3)cnc2n1 (stereo not given)	label 1
Cc1ccc2c(O)c(Cc3ccccc3)cnc2n1	label 0
COc1ccc(CNC(=O)c2cnc3nc(C)ccc3c2O)cc1	label 0
Cc1ccc2c(N=[N+]=[N-])c(Cc3ccccc3)cnc2n1	label 0
Cc1ccc2c(O)c(CC(=O)NCc3ccccc3)cnc2n1	label 0
O=C(NCc1ccccc1)c1cnc2nc(Cl)ccc2c1O	label 1
O=C(NCc1ccccc1)c1cnc2ncccc2c1O	label 0

###

pKi: −log10 of the molar value.
Adenosine receptor A2a (Homo sapiens) data, read-out pKi
Sequence (P29274 whole entry): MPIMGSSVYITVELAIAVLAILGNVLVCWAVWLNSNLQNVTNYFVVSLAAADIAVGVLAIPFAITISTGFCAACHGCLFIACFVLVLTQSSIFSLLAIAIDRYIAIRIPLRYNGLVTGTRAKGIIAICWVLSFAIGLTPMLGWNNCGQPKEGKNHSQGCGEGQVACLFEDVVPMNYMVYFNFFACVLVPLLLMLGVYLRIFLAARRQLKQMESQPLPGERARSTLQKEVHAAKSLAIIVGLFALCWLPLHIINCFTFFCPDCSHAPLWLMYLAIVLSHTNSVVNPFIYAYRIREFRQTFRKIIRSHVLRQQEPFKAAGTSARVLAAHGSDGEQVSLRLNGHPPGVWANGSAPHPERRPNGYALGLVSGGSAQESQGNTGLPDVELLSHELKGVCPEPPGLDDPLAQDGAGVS

compound	value.prefix	pKi
Cc1ccc2c(NN)c(Cc3ccccc3)cnc2n1	<	5.00
Cc1ccc2c(O)c(C(=O)NN3CCOCC3)cnc2n1	<	5.00
Cc1ccc2c(O)c(C(=O)NCCc3ccccc3)cnc2n1	=	6.82
Cc1ccc2c(N=[N+]=[N-])c(Cc3ccccc3)cnc2n1	=	5.27
Cc1ccc2c(O)c(C(=O)NC3CCC(C)CC3)cnc2n1 (stereo not given)	=	6.44

###

target: Adenosine receptor A1 (Homo sapiens)
Sequence (P30542 whole entry): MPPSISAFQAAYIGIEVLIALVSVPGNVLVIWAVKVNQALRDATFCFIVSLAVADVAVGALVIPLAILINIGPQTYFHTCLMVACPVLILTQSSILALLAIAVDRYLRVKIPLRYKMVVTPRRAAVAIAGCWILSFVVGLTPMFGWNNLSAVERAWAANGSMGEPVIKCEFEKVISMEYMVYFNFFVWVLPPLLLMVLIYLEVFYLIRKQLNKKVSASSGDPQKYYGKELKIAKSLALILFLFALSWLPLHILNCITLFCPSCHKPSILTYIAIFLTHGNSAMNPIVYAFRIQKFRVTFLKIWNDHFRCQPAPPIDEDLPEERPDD
pKi: −log10 of the molar value.
Binary classification by pKi, with 6 as an inclusive lower bound for t; all other cases are f.

smiles.notation	assigned.category
Cc1ccc2c(O)c(C(=O)NC3CCCCC3)cnc2n1	f
Cc1ccc2c(O)c(Cc3ccccc3Cl)cnc2n1	f
Cc1ccc2c(O)c(CC(=O)NC3CCCCC3)cnc2n1	f
Nc1ccc2c(O)c(C(=O)NCc3ccccc3)cnc2n1	t
Cc1ccc2c(O)c(C(=O)NN3CCOCC3)cnc2n1	f
Nc1ccc2c(O)c(C(=O)NCc3ccc(Cl)cc3)cnc2n1	f
Cc1ccc2c(O)c(C(=O)NCc3ccc(F)cc3)cnc2n1	f
Cc1ccc2c(O)c(C(=O)NCc3ccco3)cnc2n1	t
Cc1ccc2c(O)c(Cc3ccccc3)cnc2n1	f
Cc1ccc2c(O)c(C(=O)NCc3ccccc3)cnc2n1	t
Cc1ccc(CNC(=O)c2cnc3nc(C)ccc3c2O)cc1	f
